- experiment: chemical genetic growth profiling, strain panel (AID 1159580);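 further: tested at 20 µM; growth read once vehicle control cultures reached saturation at 30 °C; 1 = growth at the plate median or of vehicle wells; lower values mean less growth of the strain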
- test.parameters: S. cerevisiae deletion strains, growth OD, locus YOR136W, strain idh2, hits give low values
Screen size: about 5,500 compounds; about 2,000 (36%) were called active. Not shown: some 18% with an inconclusive outcome. The list shows a part of the results.
value.kind: normalized growth

1) COc1ccc2c3c1OC1C(O)CC=C4C(C2)N(C)CCC431 (stereo not drawn) = 1.02
2) COc1ccc(Cl)cc1C(=O)NCCc1ccc(S(=O)(=O)NC(=O)NC2CCCCC2)cc1 = 0.996
3) COC(=O)C[C@H]1C(C)(C)C2(Cl)O[C@@]34CC2C(=O)[C@]1(C)C3CC[C@]1(C)C4=CC(=O)O[C@H]1c1ccoc1 (stereo partly drawn) = 0.988
4) CCCCCc1c2c(cc(O)c1C(=O)O)OC(=O)c1c(cc(OC)cc1C(=O)CCCC)O2 = 1
5) CCC/C=C1\OC(=O)C2=C1CCC=C2 = 0.98
6) CN1C(C)(C)CCCC1(C)C = 0.987
7) CCN1C[C@]2(C)CC[C@H](OC)[C@]34C2[C@H](O)[C@]2(OCO[C@@]25C[C@H](OC)[C@H]2C[C@]3(O)C5[C@H]2O)C14 = 1.01
8) NC(CSCSCC(N)C(=O)O)C(=O)O (stereo not drawn) = 0.996
